- system.under.test: MOF-KAT8 (Homo sapiens, UniProt Q9H7Z6)
- Sequence (Q9H7Z6 177-447): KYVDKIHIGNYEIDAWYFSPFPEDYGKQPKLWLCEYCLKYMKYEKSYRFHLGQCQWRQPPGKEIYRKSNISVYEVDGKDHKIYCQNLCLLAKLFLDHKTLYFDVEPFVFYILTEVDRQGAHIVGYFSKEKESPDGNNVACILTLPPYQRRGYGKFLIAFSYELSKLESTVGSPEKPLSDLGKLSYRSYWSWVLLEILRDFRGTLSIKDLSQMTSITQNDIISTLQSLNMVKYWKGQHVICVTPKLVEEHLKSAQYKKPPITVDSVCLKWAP
- method.description: Acetyltransferase biochemical assay (AlphaScreen), KAT8
- condition.notes: Table 4 (MOF-KAT8); 0.4 μM Acetyl coenzyme A, histone H4, 20 nM enzyme
pIC50: −log10 of the molar value.
value.kind: pIC50

Nc1nnc(C(CNC(=O)C2=Nc3ccc(I)cc3S(=O)(=O)N2)c2ccccc2)o1 (centres unmarked)    5.10
O=C(NCCc1ccccc1OC(F)F)C1=Nc2ccc(I)cc2S(=O)(=O)N1    4.92
COC(CNC(=O)C1=Nc2ccc(I)cc2S(=O)(=O)N1)c1ccccc1 (centres unmarked)    4.33
CN(C)C(=O)c1ccc2c(c1)S(=O)(=O)NC(C(=O)NCC(c1ccccc1)c1ncco1)=N2 (centres unmarked)    4.05
COc1cccc(C(CNC(=O)C2=Nc3ccc(Cl)cc3S(=O)(=O)N2)c2ncco2)c1 (centres unmarked)    4.03
O=C(NCC(c1cccc(Cl)c1)c1ncco1)C1=Nc2ccc(Cl)cc2S(=O)(=O)N1 (centres unmarked)    5.38
O=C(NCCc1ccccc1-n1ncc(CO)n1)C1=Nc2ccc(I)cc2S(=O)(=O)N1    4.31
O=C(NCC(c1ccccc1)c1ccccn1)C1=Nc2ccc(Br)cc2S(=O)(=O)N1 (centres unmarked)    4.41
COc1ccccc1C(CNC(=O)C1=Nc2ccc(Cl)cc2S(=O)(=O)N1)c1ncco1 (centres unmarked)    3.97
O=C(NCC(c1cccc(O)c1)c1ncco1)C1=Nc2ccc(Br)cc2S(=O)(=O)N1 (centres unmarked)    5.15
Cc1cccc(C(CNC(=O)C2=Nc3ccc(I)cc3S(=O)(=O)N2)c2ncco2)c1 (centres unmarked)    5.21
COCc1nnc(C(CNC(=O)C2=Nc3ccc(I)cc3S(=O)(=O)N2)c2ccccc2)o1 (centres unmarked)    4.38
COc1ccccc1CCNC(=O)C1=Nc2ccc(I)cc2S(=O)(=O)N1    4.40
O=C(NCC(c1ccccc1)c1ncco1)C1=Nc2ccc(Br)cc2S(=O)(=O)N1 (centres unmarked) [Example 1]    4.84
O=C(NCC(c1cccc(O)c1)c1ncco1)C1=Nc2ccc(I)cc2S(=O)(=O)N1 (centres unmarked)    5.06
O=C(NCC(c1cccc(OCC2CC2)c1)c1ncco1)C1=Nc2ccc(I)cc2S(=O)(=O)N1 (centres unmarked)    4.65
O=C(NCC(F)(F)c1ccccc1)C1=Nc2ccc(I)cc2S(=O)(=O)N1    4.38
Cn1cc(-c2ccc3c(c2)S(=O)(=O)NC(C(=O)NCC(c2ccccc2)c2ncco2)=N3)cn1 (centres unmarked)    4.11
O=C(NCC(c1ccccc1)n1cccn1)C1=Nc2ccc(Br)cc2S(=O)(=O)N1 (centres unmarked)    4.48
O=C(NCC(c1ncco1)c1ccccc1OC(F)F)C1=Nc2ccc(I)cc2S(=O)(=O)N1 (centres unmarked)    4.98
CNC(=O)CCCOC(=O)C(CNC(=O)C1=Nc2ccc(I)cc2S(=O)(=O)N1)c1ccccc1 (centres unmarked)    4.11
O=C(NCCc1ccccc1OC(F)F)C1=Nc2ccc(Br)cc2S(=O)(=O)N1    4.51
O=C(NCC(c1ccc(F)cc1)c1ncco1)C1=Nc2ccc(Cl)cc2S(=O)(=O)N1 (centres unmarked)    4.37
Cc1ccccc1C(CNC(=O)C1=Nc2ccc(I)cc2S(=O)(=O)N1)c1ncco1 (centres unmarked)    5.20
O=C(NCC(c1ccccc1)c1ncco1)C1=Nc2ccc(Br)cc2S(=O)(=O)N1 (single isomer, unassigned) [Example 138]    5.09
O=C(NCC(c1ccccc1)c1nnc(CC(F)(F)F)o1)C1=Nc2ccc(I)cc2S(=O)(=O)N1 (centres unmarked)    3.98
